pKi: −log10 of the molar value.
// endpoint pKi / system Mu-type opioid receptor (Rattus norvegicus, UniProt P33535)
endpoint: pKi

substance.smiles	value.reported
Cc1cc(O)cc(C)c1C[C@H](N)C(=O)N[C@H](CCCNC(=N)N)C(=O)N[C@@H](Cc1ccccc1)C(=O)N[C@@H](CCCCN)CC(=O)N1CC[C@@H](C(=O)N(C)Cc2cc(C(F)(F)F)cc(C(F)(F)F)c2)[C@H](c2ccccc2)C1	7.69
Cc1cc(O)cc(C)c1C[C@H](N)C(=O)N[C@H](CCCNC(=N)N)C(=O)N[C@@H](Cc1ccccc1)C(=O)N[C@@H](CCCCN)C(=O)N1CC[C@@H](C(=O)N(C)Cc2cc(C(F)(F)F)cc(C(F)(F)F)c2)[C@H](c2ccccc2)C1	7.40
Cc1cc(O)cc(C)c1C[C@H](N)C(=O)N[C@H](CCCNC(=N)N)C(=O)N[C@@H](Cc1ccccc1)C(=O)N[C@@H](CCCCN)CC(N)=O	9.73
Cc1cc(O)cc(C)c1C[C@H](N)C(=O)N[C@H](CCCNC(=N)N)C(=O)N[C@@H](Cc1ccccc1)C(=O)N[C@@H](CCCCN)C(=O)N1CCN([C@@H]2CCN(C(=O)c3cc(C(F)(F)F)cc(C(F)(F)F)c3)C[C@@H]2c2ccccc2)CC1	8.00

---

target: Mu-type opioid receptor (Cavia porcellus); test: Agonist activity at mu opioid receptor in guinea pig ileum assessed as inhibition of electrically-stimulated muscle contraction
Sequence (P97266 whole entry): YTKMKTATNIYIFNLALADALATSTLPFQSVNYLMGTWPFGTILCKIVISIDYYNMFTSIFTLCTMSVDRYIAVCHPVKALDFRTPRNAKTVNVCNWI
endpoint: log10(IC50) (log10 of the value in nM)

substance.smiles	assayed.target	value.reported
Cc1cc(O)cc(C)c1C[C@H](N)C(=O)N[C@H](CCCNC(=N)N)C(=O)N[C@H]1Cc2ccccc2CN(CCC(=O)N2CC[C@@H](C(=O)N(C)Cc3cc(C(F)(F)F)cc(C(F)(F)F)c3)[C@H](c3ccccc3)C2)C1=O	Mu-type opioid receptor (Cavia porcellus)	1.48
Cc1cc(O)cc(C)c1C[C@H](N)C(=O)N[C@H](CCCNC(=N)N)C(=O)N[C@@H](Cc1ccccc1)C(=O)N[C@@H](CCCCN)C(=O)N1CCN([C@@H]2CCN(C(=O)c3cc(C(F)(F)F)cc(C(F)(F)F)c3)C[C@@H]2c2ccccc2)CC1	Mu-type opioid receptor (Cavia porcellus)	2.14
Cc1cc(O)cc(C)c1C[C@H](N)C(=O)N[C@H](CCCNC(=N)N)C(=O)N[C@@H](Cc1ccccc1)C(=O)N[C@@H](CCCCN)CC(N)=O	Mu-type opioid receptor (Cavia porcellus)	0.77
Cc1cc(O)cc(C)c1C[C@H](N)C(=O)N[C@H](CCCNC(=N)N)C(=O)N[C@H]1Cc2ccccc2CN(CCC(=O)N2CCN([C@@H]3CCN(C(=O)c4cc(C(F)(F)F)cc(C(F)(F)F)c4)C[C@@H]3c3ccccc3)CC2)C1=O	Mu-type opioid receptor (Cavia porcellus)	1.31
Cc1cc(O)cc(C)c1C[C@H](N)C(=O)N[C@H](CCCNC(=N)N)C(=O)N[C@@H](Cc1ccccc1)C(=O)N[C@@H](CCCCN)CC(=O)N1CC[C@@H](C(=O)N(C)Cc2cc(C(F)(F)F)cc(C(F)(F)F)c2)[C@H](c2ccccc2)C1	Mu-type opioid receptor (Cavia porcellus)	2.73
Cc1cc(O)cc(C)c1C[C@H](N)C(=O)N[C@H](CCCNC(=N)N)C(=O)N[C@H]1Cc2ccccc2CN(CCC(=O)N(C)[C@@H]2CCN(C(=O)c3cc(C(F)(F)F)cc(C(F)(F)F)c3)C[C@@H]2c2ccccc2)C1=O	Mu-type opioid receptor (Cavia porcellus)	1.11
Cc1cc(O)cc(C)c1C[C@H](N)C(=O)N[C@H](CCCNC(=N)N)C(=O)N[C@@H](Cc1ccccc1)C(=O)N[C@@H](CCCCN)C(=O)N1CC[C@@H](C(=O)N(C)Cc2cc(C(F)(F)F)cc(C(F)(F)F)c2)[C@H](c2ccccc2)C1	Mu-type opioid receptor (Cavia porcellus)	2.82
Cc1cc(O)cc(C)c1C[C@H](N)C(=O)N[C@H](CCCNC(=N)N)C(=O)N[C@@H](Cc1ccccc1)C(=O)N[C@@H](CCCCN)C(=O)N(C)[C@@H]1CCN(C(=O)c2cc(C(F)(F)F)cc(C(F)(F)F)c2)C[C@@H]1c1ccccc1	Mu-type opioid receptor (Cavia porcellus)	1.85
